system: Na+/K+ ATPase alpha1 isoform from dog kidney (Canis lupus, UniProt P50997)
measurement_protocol: […]-ATP hydrolysis, ouabain-sensitive ATPase inhibition

>  <compound>
C[C@]12CCC(=NOCC(=O)O)C[C@@H]1[C@H](O)C[C@@H]1[C@@H]2CC[C@]2(C)C(=O)CC[C@@H]12 (mixture of isomers) [PST3093]

>  <IC50>
> 100 µM

$$$$
